Reference source: PubChem BioAssay AID1963962

test system: 967376-340-R-J2-PDC multicell spheroid viability; assay: Anticancer human tumor 967376-340-R-J2-PDC patient-derived colon adenocarcinoma cell line growth inhibition [PI3K]; conditions: second compound 0.01 µM; first compound 0.00316 µM; hits give low values
For each entry below, report its viability, T/C value.
State the answer as a number, implicitly in %.

Kindly note: 967376-340-R-J2-PDC multicell spheroid viability, CCN1CCN(Cc2ccc(Nc3ncc(F)c(-c4cc(F)c5nc(C)n(C(C)C)c5c4)n3)nc2)CC1 + CC(Nc1ccc2c(c1)OCCn1cc(N3C(=O)OCC3C(F)F)nc1-2)C(N)=O , viability, T/C value reported: 94.9

Kindly note: 967376-340-R-J2-PDC multicell spheroid viability, CC(=O)c1c(C)c2cnc(Nc3ccc(N4CCNCC4)cn3)nc2n(C2CCCC2)c1=O + COc1c(OCCCN2CCOCC2)ccc2c3n(c(=NC(=O)c4cnc(N)nc4)nc12)CCN3 , viability, T/C value reported: 92.2

Kindly note: 967376-340-R-J2-PDC multicell spheroid viability, CC(C)n1nc(-c2ccc3oc(N)nc3c2)c2c(N)ncnc21 + COc1c(OCCCN2CCOCC2)ccc2c3n(c(=NC(=O)c4cnc(N)nc4)nc12)CCN3 , viability, T/C value reported: 81

Kindly note: 967376-340-R-J2-PDC multicell spheroid viability, CC(C)n1nc(-c2ccc3oc(N)nc3c2)c2c(N)ncnc21 + CC(Nc1ccc2c(c1)OCCn1cc(N3C(=O)OCC3C(F)F)nc1-2)C(N)=O , viability, T/C value reported: 67.3

---

system: 967376-340-R-J2-PDC multicell spheroid viability; assay: Anticancer human tumor 967376-340-R-J2-PDC cell line growth inhibition [PI3K]; details: second compound 0.316 µM; first compound 0.0316 µM; hits give low values;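 also: luminescence used as surrogate of cell viability; spheroids exposed to agents for 7 days before read-out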
For each entry below, report its viability, T/C value.
State the answer as a number, implicitly in %.

Kindly note: 967376-340-R-J2-PDC multicell spheroid viability, CC(C)NCC(C(=O)N1CCN(c2ncnc3c2C(C)CC3O)CC1)c1ccc(Cl)cc1 (stereo unspecified) + CC(Nc1ccc2c(c1)OCCn1cc(N3C(=O)OCC3C(F)F)nc1-2)C(N)=O , viability, T/C value reported: 57.5

Kindly note: 967376-340-R-J2-PDC multicell spheroid viability, Cn1ncnc1[C@H]1c2n[nH]c(=O)c3cc(F)cc(c23)N[C@@H]1c1ccc(F)cc1 + Cc1nc(NC(=O)N2CCCC2C(N)=O)sc1-c1ccnc(C(C)(C)C(F)(F)F)c1 , viability, T/C value reported: 71.3

Kindly note: 967376-340-R-J2-PDC multicell spheroid viability, CC(Cn1ccc(-c2ccc(C#N)c(Cl)c2)n1)NC(=O)c1cc(C(C)O)[nH]n1 (stereo unspecified) + COc1c(OCCCN2CCOCC2)ccc2c3n(c(=NC(=O)c4cnc(N)nc4)nc12)CCN3 , viability, T/C value reported: 64.2

Kindly note: 967376-340-R-J2-PDC multicell spheroid viability, CC(=O)c1c(C)c2cnc(Nc3ccc(N4CCNCC4)cn3)nc2n(C2CCCC2)c1=O + CC(Nc1ccc2c(c1)OCCn1cc(N3C(=O)OCC3C(F)F)nc1-2)C(N)=O , viability, T/C value reported: 72.9

Kindly note: 967376-340-R-J2-PDC multicell spheroid viability, CC(C)NCC(C(=O)N1CCN(c2ncnc3c2C(C)CC3O)CC1)c1ccc(Cl)cc1 (stereo unspecified) + COc1c(OCCCN2CCOCC2)ccc2c3n(c(=NC(=O)c4cnc(N)nc4)nc12)CCN3 , viability, T/C value reported: 38.4

Kindly note: 967376-340-R-J2-PDC multicell spheroid viability, CCCS(=O)(=O)Nc1ccc(F)c(C(=O)c2c[nH]c3ncc(-c4ccc(Cl)cc4)cc23)c1F + CC(Nc1ncnc2nc[nH]c12)c1cc2cccc(Cl)c2c(=O)n1-c1ccccc1 , viability, T/C value reported: 103

---

For each entry below, report its viability, T/C value.
tested on: 967376-340-R-J2-PDC multicell spheroid viability; test: Anticancer human tumor 967376-340-R-J2-PDC cell line growth inhibition [PI3K]; details: second compound 0.0316 µM; first compound 3.16 µM; hits give low values;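 also: luminescence used as surrogate of cell viability; spheroids exposed to agents for 7 days before read-out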
State the answer as a number, implicitly in %.

GET /value?item= Cn1nccc1Nc1nccc(-c2ccn(C(CO)c3ccc(Cl)c(F)c3)c(=O)c2)n1 (stereo not drawn) + Cc1nc(NC(=O)N2CCCC2C(N)=O)sc1-c1ccnc(C(C)(C)C(F)(F)F)c1 &field=viability, T/C returns 87.3

GET /value?item= C[C@@H](NC(=O)c1ncnc(N)c1Cl)c1ncc(C(=O)Nc2cc(C(F)(F)F)c(Cl)cn2)s1 + CC(Nc1ncnc2nc[nH]c12)c1cc2cccc(Cl)c2c(=O)n1-c1ccccc1 &field=viability, T/C returns 101

GET /value?item= C#Cc1c(F)ccc2cc(O)cc(-c3ncc4c(N5CC6CCC(C5)N6)nc(OCC56CCCN5CC(F)C6)nc4c3F)c12 (stereo not drawn) + CC(Nc1ccc2c(c1)OCCn1cc(N3C(=O)OCC3C(F)F)nc1-2)C(N)=O &field=viability, T/C returns 98.7

---

tested on: 967376-340-R-J2-PDC multicell spheroid viability; experiment: Anticancer human tumor 967376-340-R-J2-PDC cell line growth inhibition [PI3K]; details: second compound 0.316 µM; first compound 0.03 µM; hits give low values;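 also: luminescence used as surrogate of cell viability; spheroids exposed to agents for 7 days before read-out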
For each entry below, report its viability, T/C value.
State the answer as a number, implicitly in %.

GET /value?item= Cn1cnc2c(F)c(Nc3ccc(Br)cc3Cl)c(C(=O)NOCCO)cc21 + CC(Nc1ncnc2nc[nH]c12)c1cc2cccc(Cl)c2c(=O)n1-c1ccccc1 &field=viability, T/C returns 104

GET /value?item= Cn1cnc2c(F)c(Nc3ccc(Br)cc3Cl)c(C(=O)NOCCO)cc21 + COc1c(OCCCN2CCOCC2)ccc2c3n(c(=NC(=O)c4cnc(N)nc4)nc12)CCN3 &field=viability, T/C returns 65.1

GET /value?item= Cn1cnc2c(F)c(Nc3ccc(Br)cc3Cl)c(C(=O)NOCCO)cc21 + CC(Nc1ccc2c(c1)OCCn1cc(N3C(=O)OCC3C(F)F)nc1-2)C(N)=O &field=viability, T/C returns 52.4

GET /value?item= Cn1cnc2c(F)c(Nc3ccc(Br)cc3Cl)c(C(=O)NOCCO)cc21 + Cc1nc(NC(=O)N2CCCC2C(N)=O)sc1-c1ccnc(C(C)(C)C(F)(F)F)c1 &field=viability, T/C returns 81.5

---

test system: 967376-340-R-J2-PDC multicell spheroid viability; assay: Anticancer human tumor 967376-340-R-J2-PDC cell line growth inhibition [PI3K]; conditions: second compound 0.316 µM; first compound 3.16 µM; hits give low values;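 also: luminescence used as surrogate of cell viability; spheroids exposed to agents for 7 days before read-out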
QUANTITY: viability, T/C (%)
State the answer as a number, implicitly in %.

Kindly note: 967376-340-R-J2-PDC multicell spheroid viability, CC(Cn1ccc(-c2ccc(C#N)c(Cl)c2)n1)NC(=O)c1cc(C(C)O)[nH]n1 (stereo unspecified) + CC(Nc1ccc2c(c1)OCCn1cc(N3C(=O)OCC3C(F)F)nc1-2)C(N)=O , viability, T/C value reported: 69.4

Kindly note: 967376-340-R-J2-PDC multicell spheroid viability, CC1(C)CCC(Nc2ncc(C(F)(F)F)c(-c3c[nH]c4c(P(C)(C)=O)c(C#N)ccc34)n2)CN1 (stereo unspecified) + CC(Nc1ccc2c(c1)OCCn1cc(N3C(=O)OCC3C(F)F)nc1-2)C(N)=O , viability, T/C value reported: 54.9

Kindly note: 967376-340-R-J2-PDC multicell spheroid viability, CC1(C)CCC(Nc2ncc(C(F)(F)F)c(-c3c[nH]c4c(P(C)(C)=O)c(C#N)ccc34)n2)CN1 (stereo unspecified) + Cc1nc(NC(=O)N2CCCC2C(N)=O)sc1-c1ccnc(C(C)(C)C(F)(F)F)c1 , viability, T/C value reported: 60.4

Kindly note: 967376-340-R-J2-PDC multicell spheroid viability, C[C@@H](NC(=O)c1ncnc(N)c1Cl)c1ncc(C(=O)Nc2cc(C(F)(F)F)c(Cl)cn2)s1 + CC(Nc1ccc2c(c1)OCCn1cc(N3C(=O)OCC3C(F)F)nc1-2)C(N)=O , viability, T/C value reported: 77.2

Kindly note: 967376-340-R-J2-PDC multicell spheroid viability, CC(Cn1ccc(-c2ccc(C#N)c(Cl)c2)n1)NC(=O)c1cc(C(C)O)[nH]n1 (stereo unspecified) + COc1c(OCCCN2CCOCC2)ccc2c3n(c(=NC(=O)c4cnc(N)nc4)nc12)CCN3 , viability, T/C value reported: 57.4

Kindly note: 967376-340-R-J2-PDC multicell spheroid viability, CC(C)NCC(C(=O)N1CCN(c2ncnc3c2C(C)CC3O)CC1)c1ccc(Cl)cc1 (stereo unspecified) + COc1c(OCCCN2CCOCC2)ccc2c3n(c(=NC(=O)c4cnc(N)nc4)nc12)CCN3 , viability, T/C value reported: 52.5
